- Tested on: MS2 coat protein
- Protocol: apparent KD of MS2 coat protein; designed switch direction (-1 OFF switch, 1 ON switch): -1; higher = weaker reporter binding
- Details: input ligand: FMN 200 uM
Class T: apparent KD of MS2 coat protein at least 100 nM. Class F: apparent KD of MS2 coat protein below 100 nM.

A selection of reference data follows.
Biosequence: GCUGGUCAAGGAUAUACAAUCGUGCUUCGGCACGUAAGAUCACAUGAGGAUCACCCAUGUAGAAGGUGACCAGC [E2/1-C1] (Eterna round: R97, puzzle: Exclusion 2)
Classification: T
--
Biosequence: ACAUGAGGAUCACCCAUGUCAGGUGGGUCCUCUCCGGCUGUUGAGGAUAUAGUCCGGUAUCCGCGCUAGAAGGUGAGGGCUGGC [Aenatbe mod 16] (Eterna round: R96, puzzle: Exclusion NG 3)
Classification: F
--
Biosequence: GCAGCGUAUGUAGGAUAUCGGUCAGUUUCUGAUCGAGAAGGACAUGAGGAUCACCCAUGUUAAGUCAUGCGUGAGCAUGGCUGC [JL ENG1 3.72] (Eterna round: R96, puzzle: Exclusion NG 1)
Classification: T
--
Biosequence: AAGUCGGCAGGAUAUACAUGAGGAUCACCCAUGUAAAUUUUUCGUUUAACUUGAAUGUGUAGAAGGGCCAUAAA [Ex3 #66] (Eterna round: R97, puzzle: Exclusion 3)
Classification: F

Decide: apparent KD of MS2 coat protein of ACAUGUUAUGUAGGAUAUUAGACACAUGAGGAUCACCCAUGUAACCGGAGGCUUUACUAUGAGUUUGAGAAGGGUAUGAACAUG [Ex NG2 #66] (Eterna round: R96, puzzle: Exclusion NG 2) >= 100 nM?
F

Item GUUGUUUAUGUAGGAUAUGCCUGGCGUGCCUUUGCAGAAGGACAUGAGGAUCACCCAUGUAACAUGAGGCUCACCCAUGUCGCG [salish99_ExNG1_r04_109] (Eterna round: R96, puzzle: Exclusion NG 1) with apparent KD of MS2 coat protein of 100 nM or above?
T

Given the entry CGUCAGUGAGGAUAUGGUAACAUUUACAUGAGGAUCACCCAUGUUUCAUGGGACUAAAGACUAGAAGGCACUGACG [JR_Ex5_Sub031] (Eterna round: R97, puzzle: Exclusion 5) , answer whether its apparent KD of MS2 coat protein meets or surpasses 100 nM.
F

Check the entry AUUAUAAAGGCAGGAUAUACAUGAGGAUCACCCAUGUAUAUCCGAUAAUAAUAUAAGUGCCUCAUGUAGAAGGGCCAUUAUAUA [Same State Mistake] (Eterna round: R96, puzzle: Exclusion NG 2) : does apparent KD of MS2 coat protein equal or exceed 100 nM?
F

Hi, just wondering whether GCACAGGCAGGAUAUACAUGAGGAUCACCCAUGUGAUCCCUUAGGUACAAAAGUACUAGUAGAAGGGCCUGUGC [Omei Ex3 Model Bachelor's Dilema v49] (Eterna round: R97, puzzle: Exclusion 3) shows apparent KD of MS2 coat protein of 100 nM or higher.
T

I'd appreciate it if you could say whether CUCUAGUCAGGAUAUCACGUUUACCGUGCACUCACAAAGCCUGAGAAGGGACUUGAGGAUCACCCAAGUGGGAA [Reedbequ] (Eterna round: R97, puzzle: Exclusion 4) has apparent KD of MS2 coat protein at least equal to 100 nM.
T

Is apparent KD of MS2 coat protein at least 100 nM? Consider AAAUUGCUAGAGGAUAUCGGAUAGGAUUUAUUACGAGAAGGUUAGACAUGAGGAUCACCCAUGUUCUGUUGGGA [EX6 #24] (Eterna round: R97, puzzle: Exclusion 6)
F

Could you verify whether the entry UGUACGCGAGGAUAUACAUGAGGAUCACCCAUGUCAUAUGAAAUGUAAUGAGUAGCGGGUAGAAGGCGCUUUUG [Eternabot (L2) Solution 26] (Eterna round: R97, puzzle: Exclusion 3) shows apparent KD of MS2 coat protein of no less than 100 nM?
F
